Sourced from the supplement of paper PMC11219838

tested on: Caenorhabditis elegans dauer (daf-2(e1370)); assay: proportion of mobile C. elegans dauer larvae relative to DMSO control (fraction of DMSO control); higher = more viable, less nematicidal, active = 0.63 or less; extreme values may be limits of the assay; settings: 60 µM; 5 days; temperature: 20 °C
Labels: yes (active), no (inactive)

{"Compound": "COc1ccc(-c2nnc(SCc3csc(N)n3)o2)cc1", "Class name": "no"}
{"Compound": "COc1ccc(NC(=O)CSc2nnc(-c3ccccc3)o2)cc1", "Class name": "no"}
{"Compound": "Clc1ccc(OCc2nc(-c3ccc4c(c3)OCO4)no2)cc1", "Class name": "no"}
{"Compound": "CC(C)CCC(=O)Nc1ccccc1-c1nc(-c2ccccn2)no1", "Class name": "no"}
{"Compound": "CCn1c(SCc2nc(-c3cccs3)no2)nnc1-c1ccco1", "Class name": "no"}
{"Compound": "CC1CC(C)CN(C(=O)CSc2nnc(-c3ccccc3)o2)C1 (centres undefined)", "Class name": "no"}
{"Compound": "CC(Oc1ccc(C(C)(C)C)cc1)c1nc(-c2ccncc2)no1 (centres undefined)", "Class name": "no"}
{"Compound": "COc1ccc(-c2nnc(SCC(=O)N(C)c3ccccc3)o2)cc1", "Class name": "no"}
{"Compound": "CCc1ccc(C(=O)Nc2ccccc2-c2nc(-c3ccncc3)no2)cc1", "Class name": "no"}
{"Compound": "COc1ccc(-c2nnc(SCC(=O)c3ccc(C)o3)o2)cc1", "Class name": "no"}
{"Compound": "COc1ccc(Cl)cc1-c1noc(-c2ccccc2)n1", "Class name": "no"}
{"Compound": "O=C(CSc1nnc(-c2ccccc2)o1)N1CCc2ccccc21", "Class name": "no"}
{"Compound": "O=C(CSc1nnc(-c2ccccc2)o1)Nc1ccccc1F", "Class name": "no"}
{"Compound": "Brc1ccc(-c2noc(-c3ccc(Br)o3)n2)o1", "Class name": "no"}
{"Compound": "Fc1ccc(-c2noc(COc3ccccc3)n2)cc1", "Class name": "yes"}
{"Compound": "COc1ccc(-c2nnc(SCC(=O)OCc3ccccc3)o2)cc1", "Class name": "no"}
{"Compound": "CNC(=O)c1ccccc1-c1nc(-c2ccc(Cl)cc2)no1", "Class name": "no"}
{"Compound": "Cc1ccc(SCc2nc(-c3ccccc3)no2)cc1", "Class name": "no"}
{"Compound": "COc1ccc(-c2noc(-c3ccccc3C(=O)Nc3ccc(NC(C)=O)cc3)n2)cc1", "Class name": "no"}
{"Compound": "Cc1ccccc1CSc1nnc(-c2ccncc2)o1", "Class name": "no"}
{"Compound": "Cc1ccc(-c2nc(-c3ccccc3)no2)cc1Cl", "Class name": "no"}
{"Compound": "O=C(CSc1nnc(-c2ccccc2)o1)NC1CCCCC1", "Class name": "no"}
{"Compound": "Brc1ccc(-c2noc(COc3ccc4c(c3)OCO4)n2)cc1", "Class name": "no"}
{"Compound": "Cc1cccc(OCc2nc(-c3ccc(-n4cccc4)cc3)no2)c1", "Class name": "no"}
{"Compound": "Clc1ccc(OCc2nc(-c3cccnc3)no2)c(Cl)c1", "Class name": "no"}
{"Compound": "Cc1cccc(-c2noc(COc3ccccc3Cl)n2)c1", "Class name": "no"}
{"Compound": "O=C(Nc1ccc(-c2noc(COc3ccccc3)n2)cc1)c1ccc(F)cc1", "Class name": "no"}
{"Compound": "COc1ccc(C(=O)Nc2ccc(-c3nnc(SCc4ccccc4)o3)cc2)cc1", "Class name": "no"}
{"Compound": "CCCc1ccc(-c2ccc(-c3nc(-c4ccccn4)no3)cc2)cc1", "Class name": "no"}
{"Compound": "Cc1ccccc1OCc1nc(-c2ccc(NC(=O)c3ccc(Br)o3)cc2)no1", "Class name": "no"}
{"Compound": "COc1ccccc1-c1nc(-c2ccccc2)no1", "Class name": "no"}
{"Compound": "CCCc1nnc(CSc2nnc(-c3ccc(Cl)cc3)o2)o1", "Class name": "no"}
{"Compound": "Brc1ccccc1-c1nc(-c2ccccc2)no1", "Class name": "no"}
{"Compound": "Clc1ccccc1OCc1nc(-c2ccc(Br)cc2)no1", "Class name": "no"}
{"Compound": "Cc1ccccc1CSc1nnc(-c2ccccc2)o1", "Class name": "no"}
{"Compound": "Cc1ccc(-c2nnc(SCC(=O)Nc3ccc(Br)c(C)c3C)o2)cc1", "Class name": "no"}
{"Compound": "O=C(Nc1ccccc1-c1nc(-c2cccnc2)no1)c1ccc(Cl)cc1", "Class name": "no"}
{"Compound": "Cc1cc(Cl)ccc1OCc1nc(-c2ccccc2)no1", "Class name": "no"}
{"Compound": "COc1ccc(-c2noc(COc3ccc(C(C)(C)C)cc3Br)n2)cc1", "Class name": "no"}
{"Compound": "Brc1ccc(OCc2nc(-c3cccs3)no2)cc1", "Class name": "no"}
{"Compound": "CCc1ccc(OCc2nc(-c3ccc(C)cc3)no2)cc1", "Class name": "no"}
{"Compound": "CCCOc1ccc(-c2ccc(-c3nc(-c4ccccn4)no3)cc2)cc1", "Class name": "no"}
{"Compound": "O=C(CSc1nnc(-c2ccco2)o1)c1ccc(Br)cc1", "Class name": "no"}
{"Compound": "Cc1cc(Br)ccc1OCc1nc(-c2ccncc2)no1", "Class name": "no"}
{"Compound": "Cc1cccc(-c2noc(COc3ccc(C)c(C)c3)n2)c1", "Class name": "no"}
{"Compound": "CC(Sc1nnc(-c2ccccc2)o1)C(=O)Nc1nccs1 (centres undefined)", "Class name": "no"}
{"Compound": "Clc1ccc(SCc2nc(-c3ccccn3)no2)cc1", "Class name": "yes"}
{"Compound": "O=C(CSc1nnc(-c2cccc(Br)c2)o1)c1ccc2c(c1)CCCC2", "Class name": "no"}
{"Compound": "O=C(CSc1nnc(-c2ccncc2)o1)Nc1cccc(Cl)c1Cl", "Class name": "no"}
